# experiment-notes: Permeability in rat jejunum
# Type: ADME, tissue-based
# condition-notes: read-out: permeability
readout-type: Papp (×10⁻⁶ cm/s)

compound	measurement
C=CC[C@@H]1/C=C(\C)C[C@H](C)C[C@H](OC)[C@H]2O[C@@](O)(C(=O)C(=O)N3CCCC[C@H]3C(=O)O[C@H](/C(C)=C/[C@@H]3CC[C@@H](O)[C@H](OC)C3)[C@H](C)[C@@H](O)CC1=O)[C@H](C)C[C@@H]2OC [TACROLIMUS ANHYDROUS]	18

----------
# experiment-notes: Aqueous solubility of the compound at pH 5
# Assay type: physicochemical
# condition-notes: buffer

structure-smiles-string	solubility
COC(=O)N[C@H](C(=O)N1CCC[C@H]1c1nc(-c2ccc3c(c2)O[C@@H](c2ccccc2)n2c-3cc3cc(-c4c[nH]c([C@@H]5CCCN5C(=O)[C@@H](NC(=O)OC)C(C)C)n4)ccc32)c[nH]1)C(C)C	50 µg/mL

----------
# experiment-notes: physchem
# condition-notes: phosphate buffer, pH 6.8
# Description: Aqueous solubility of the compound in phosphate buffer at pH 6.8 measured after 72 hrs by UV-Vis spectrophotometer
readout-type: solubility at 72 h (µg/mL)

>>> df
                    structure_smiles_string  measurement
0  CCC[C@H](NC(=O)[C@@H]1[C@H]2CCC[C@H]2CN1C(=O)[C@@H](NC(=O)[C@@H](NC(=O)c1cnccn1)C1CCCCC1)C(C)(C)C)C(=O)C(=O)NC1CC1          4.7

----------
# experiment-notes: Aqueous solubility of the compound in buffer
# Assay type: physicochemical
readout-type: solubility

>>> df
                    structure_smiles_string  readout_type   measurement
0  CC(C)(C)c1cc(C(C)(C)C)c(NC(=O)c2c[nH]c3ccccc3c2=O)cc1O    solubility  < 0.05 µg/mL

----------
Below, each of the molecules is paired with its reported solubility value.
# experiment-notes: Aqueous solubility of the compound
# Format: physicochemical
# condition-notes: buffer

molecule	solubility
C=CC[C@@H]1/C=C(\C)C[C@H](C)C[C@H](OC)[C@H]2O[C@@](O)(C(=O)C(=O)N3CCCC[C@H]3C(=O)O[C@H](/C(C)=C/[C@@H]3CC[C@@H](O)[C@H](OC)C3)[C@H](C)[C@@H](O)CC1=O)[C@H](C)C[C@@H]2OC [TACROLIMUS ANHYDROUS]	1.3 µg/mL
Cc1cc(C#N)cc(C)c1Oc1nc(Nc2ccc(C#N)cc2)nc(N)c1Br	< 1 µg/mL

----------
# experiment-notes: Aqueous solubility of the compound at pH 1.8
# Type: physicochemical
# condition-notes: buffer

structure-smiles-string	solubility
COC(=O)N[C@H](C(=O)N1CCC[C@H]1c1nc(-c2ccc3c(c2)O[C@@H](c2ccccc2)n2c-3cc3cc(-c4c[nH]c([C@@H]5CCCN5C(=O)[C@@H](NC(=O)OC)C(C)C)n4)ccc32)c[nH]1)C(C)C	> 5 µg/mL

----------
# experiment-notes: Aqueous solubility of the compound in FaSSIF at pH 6.5 measured by dissolution tester
# Assay type: physicochemical
readout-type: solubility (µg/mL)

>>> print(df.to_string())
                    structure_smiles_string  readout_type  measurement
0  CCCS(=O)(=O)Nc1ccc(F)c(C(=O)c2c[nH]c3ncc(-c4ccc(Cl)cc4)cc23)c1F    solubility            2

----------
# experiment-notes: Permeability in human Caco-2 cells
# Format: ADME, cell-based
# condition-notes: read-out: permeability
Below, each of the molecules is paired with its reported Papp value.
readout-type: Papp

                                   molecule  readout_type       measurement
0  CCC[C@H](NC(=O)[C@@H]1[C@H]2CCC[C@H]2CN1C(=O)[C@@H](NC(=O)[C@@H](NC(=O)c1cnccn1)C1CCCCC1)C(C)(C)C)C(=O)C(=O)NC1CC1          Papp  > 4.4 ×10⁻⁶ cm/s
1  CC(C)c1nc(CN(C)C(=O)N[C@H](C(=O)N[C@@H](Cc2ccccc2)C[C@H](O)[C@H](Cc2ccccc2)NC(=O)OCc2cncs2)C(C)C)cs1 [RITONAVIR]          Papp     20 ×10⁻⁶ cm/s
2  CCCS(=O)(=O)Nc1ccc(F)c(C(=O)c2c[nH]c3ncc(-c4ccc(Cl)cc4)cc23)c1F [VEMURAFENIB]          Papp    2.9 ×10⁻⁶ cm/s

----------
# experiment-notes: Permeability in MDCK-II cells
# Type: ADME, cell-based, Canis lupus familiaris
# condition-notes: dog, read-out: permeability
Below, each of the compounds is paired with its reported Papp value.
readout-type: Papp (×10⁻⁶ cm/s)

structure-smiles-string	lt-gt-eq	measurement
COC(=O)N[C@H](C(=O)N1CCC[C@H]1c1nc2cc([C@H]3CC[C@H](c4cc5nc([C@@H]6CCCN6C(=O)[C@@H](NC(=O)OC)[C@@H](C)OC)[nH]c5cc4F)N3c3cc(F)c(N4CCC(c5ccc(F)cc5)CC4)c(F)c3)c(F)cc2[nH]1)[C@@H](C)OC	<	1
COC(=O)N[C@H](C(=O)N1CCC[C@H]1c1nc(-c2ccc3c(c2)O[C@@H](c2ccccc2)n2c-3cc3cc(-c4c[nH]c([C@@H]5CCCN5C(=O)[C@@H](NC(=O)OC)C(C)C)n4)ccc32)c[nH]1)C(C)C	=	0.8

Value source: ChEMBL document CHEMBL5143567
